Tgt: JAK2 (catalytic domain, His-tag) (Homo sapiens)
Construct: All four purified enzymes contain only the catalytic domain; His (N); purchased Carna Biosciences, Inc; host or cells: baculovirus expression system
Sequence (O60674 849-1124 limits assumed): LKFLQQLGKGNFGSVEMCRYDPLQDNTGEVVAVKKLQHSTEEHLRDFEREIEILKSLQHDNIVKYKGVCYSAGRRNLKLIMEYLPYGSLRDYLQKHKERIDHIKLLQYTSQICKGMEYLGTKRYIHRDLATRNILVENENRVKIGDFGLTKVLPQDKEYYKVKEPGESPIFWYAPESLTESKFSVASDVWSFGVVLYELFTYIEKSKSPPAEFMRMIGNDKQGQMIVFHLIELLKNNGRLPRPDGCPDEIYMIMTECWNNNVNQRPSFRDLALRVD
Test name: JAK kinase assay (HTRF, phosphorylation of TK substrate-biotin), JAK2
Assay type: biochemical
Stated conditions: ATP at Km (4 μM); read-out: JAK2 kinase inhibitory activity (EC50 indicator)
pEC50: −log10 of the molar value.

| Compound | pEC50 |
| --- | --- |
| CS(=O)(=O)c1ccc(C(=O)N2CCN(c3ncnc4[nH]ccc34)CC23CC3)cc1N1CCCC1 [Example 194] | > 7.00 |
| N#CCOc1ccc(C(=O)N2CCN(c3ncnc4[nH]ccc34)CC23CC3)cc1 [Example 68] | > 7.00 |
| COCCOC(=O)N1[C@@H]2CC[C@H]1CN(c1ncnc3[nH]ccc13)C2 [Example 12] | 6.30 to 7.00 |
| N#Cc1cccc(C(=O)N2CCN(c3ncnc4[nH]ccc34)CC23CC3)c1 [Example 44] | > 7.00 |

====

Tgt: JAK3 (catalytic domain, His-tag) (Homo sapiens)
Construct: All four purified enzymes contain only the catalytic domain; His (N); purchased Carna Biosciences, Inc; host or cells: baculovirus expression system
Sequence (P52333 822-1111 limits assumed): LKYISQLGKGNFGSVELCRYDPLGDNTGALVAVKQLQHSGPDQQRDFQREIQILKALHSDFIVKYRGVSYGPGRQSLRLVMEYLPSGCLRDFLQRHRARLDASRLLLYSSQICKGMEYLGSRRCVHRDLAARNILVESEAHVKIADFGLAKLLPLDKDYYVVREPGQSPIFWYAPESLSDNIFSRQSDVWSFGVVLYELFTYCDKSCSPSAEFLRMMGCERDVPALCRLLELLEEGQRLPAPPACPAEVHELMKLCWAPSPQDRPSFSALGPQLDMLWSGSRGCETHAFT
Test name: JAK kinase assay (HTRF, phosphorylation of TK substrate-biotin), JAK3
Type: biochemical
Stated conditions: HTRF assay, ATP at Km (2 μM); read-out: JAK3 kinase inhibitory activity (EC50 indicator)
pEC50: −log10 of the molar value.

| Chemical smiles | Tgt | pEC50 |
| --- | --- | --- |
| N#Cc1cccc(C(=O)N2CCN(c3nc(N)nc4[nH]ccc34)CC23CC3)c1 | JAK3 (catalytic domain, His-tag) (Homo sapiens) | > 7.00 |
| N#CCCCC(=O)N1[C@@H]2CC[C@@H]1CN(c1ncnc3[nH]ccc13)C2 | JAK3 (catalytic domain, His-tag) (Homo sapiens) | 6.30 to 7.00 |
| COc1cc(S(N)(=O)=O)ccc1C(=O)N1[C@@H]2CC[C@H]1CN(c1ncnc3[nH]ccc13)C2 | JAK3 (catalytic domain, His-tag) (Homo sapiens) | > 7.00 |
| Cc1c[nH]c2ncnc(N3CCN(C(=O)Cc4ccc(CC#N)cc4)C4(CC4)C3)c12 | JAK3 (catalytic domain, His-tag) (Homo sapiens) | 6.30 to 7.00 |
| Cc1c[nH]c2ncnc(N3CCN(C(=O)c4cnccn4)C4(CC4)C3)c12 | JAK3 (catalytic domain, His-tag) (Homo sapiens) | < 6.30 |
| CS(=O)(=O)c1ccc(CC(=O)N2CCN(c3ncnc4[nH]ccc34)CC23CC3)cc1 | JAK3 (catalytic domain, His-tag) (Homo sapiens) | > 7.00 |
| O=C(c1ccc2[nH]c(=O)ccc2c1)N1[C@@H]2CC[C@@H]1CN(c1ncnc3[nH]ccc13)C2 | JAK3 (catalytic domain, His-tag) (Homo sapiens) | 6.30 to 7.00 |
| CC(C)(C#N)C(=O)N1[C@@H]2CC[C@@H]1CN(c1ncnc3[nH]ccc13)C2 | JAK3 (catalytic domain, His-tag) (Homo sapiens) | 6.30 to 7.00 |
| N#CC1(C(=O)N2C[C@@H]3C[C@H]2CN3c2ncnc3[nH]ccc23)CC1 | JAK3 (catalytic domain, His-tag) (Homo sapiens) | < 6.30 |
| O=C(c1cccc2[nH]ccc12)N1[C@@H]2CC[C@H]1CN(c1ncnc3[nH]ccc13)C2 | JAK3 (catalytic domain, His-tag) (Homo sapiens) | > 7.00 |
| O=C(c1ccccn1)N1[C@@H]2CC[C@@H]1CN(c1ncnc3[nH]ccc13)C2 | JAK3 (catalytic domain, His-tag) (Homo sapiens) | 6.30 to 7.00 |
| O=C(c1cnccn1)N1[C@@H]2CC[C@H]1CN(c1ncnc3[nH]ccc13)C2 | JAK3 (catalytic domain, His-tag) (Homo sapiens) | 6.30 to 7.00 |
| O=C(c1cnc2ccccc2n1)N1CCN(c2ncnc3[nH]cc(Cl)c23)CC12CC2 | JAK3 (catalytic domain, His-tag) (Homo sapiens) | < 6.30 |
| N#Cc1ccccc1CC(=O)N1CCN(c2ccnc3[nH]ccc23)CC12CC2 | JAK3 (catalytic domain, His-tag) (Homo sapiens) | 6.30 to 7.00 |
| N#Cc1ccc(C(=O)N2[C@@H]3CC[C@@H]2CN(c2ncnc4[nH]ccc24)C3)c(F)c1 | JAK3 (catalytic domain, His-tag) (Homo sapiens) | 6.30 to 7.00 |
| COc1cnc2[nH]ccc2c1N1CCN(C(=O)CCCC#N)C2(CC2)C1 | JAK3 (catalytic domain, His-tag) (Homo sapiens) | > 7.00 |
| COc1cnc2[nH]ccc2c1N1CCN(C(=O)Cc2cccc(C#N)c2)C2(CC2)C1 | JAK3 (catalytic domain, His-tag) (Homo sapiens) | 6.30 to 7.00 |
| N#Cc1cccc(C(=O)N2CCN(c3ncnc4[nH]cc(Cl)c34)CC23CC3)c1 | JAK3 (catalytic domain, His-tag) (Homo sapiens) | 6.30 to 7.00 |
| Cc1cc(C(=O)N2CCN(c3ncnc4[nH]ccc34)CC23CC3)ccc1S(N)(=O)=O | JAK3 (catalytic domain, His-tag) (Homo sapiens) | > 7.00 |
| O=C(c1ccc(S(=O)(=O)CCO)cc1)N1CCN(c2ncnc3[nH]ccc23)CC12CC2 | JAK3 (catalytic domain, His-tag) (Homo sapiens) | 6.30 to 7.00 |
| NC(=O)c1ccc(C(=O)N2[C@@H]3CC[C@@H]2CN(c2ncnc4[nH]ccc24)C3)cc1 | JAK3 (catalytic domain, His-tag) (Homo sapiens) | 6.30 to 7.00 |
| N#Cc1ccc(C(=O)N2CCN(c3ccnc4[nH]ccc34)CC23CC3)cc1 | JAK3 (catalytic domain, His-tag) (Homo sapiens) | < 6.30 |
| COc1cc(C(=O)N2CCN(c3ncnc4[nH]ccc34)CC23CC3)cs1 | JAK3 (catalytic domain, His-tag) (Homo sapiens) | > 7.00 |
| O=C(Cc1ccc(C(F)(F)F)cc1)N1[C@@H]2CC[C@@H]1CN(c1ncnc3[nH]ccc13)C2 | JAK3 (catalytic domain, His-tag) (Homo sapiens) | 6.30 to 7.00 |
| Cc1ccc2sc(C(=O)N3CCN(c4ccnc5[nH]ccc45)CC34CC4)cc2c1 | JAK3 (catalytic domain, His-tag) (Homo sapiens) | < 6.30 |
| Cc1c[nH]c2ncnc(N3CCN(C(=O)CCCC#N)C4(CC4)C3)c12 | JAK3 (catalytic domain, His-tag) (Homo sapiens) | < 6.30 |
| O=C(c1ccc2[nH]ccc2c1)N1[C@@H]2CC[C@H]1CN(c1ncnc3[nH]ccc13)C2 | JAK3 (catalytic domain, His-tag) (Homo sapiens) | > 7.00 |
| Cc1cc(S(N)(=O)=O)ccc1C(=O)N1[C@@H]2CC[C@H]1CN(c1ncnc3[nH]ccc13)C2 | JAK3 (catalytic domain, His-tag) (Homo sapiens) | 6.30 to 7.00 |
| O=C(c1ccc(S(=O)(=O)C2CCCC2)cc1)N1CCN(c2ncnc3[nH]ccc23)CC12CC2 | JAK3 (catalytic domain, His-tag) (Homo sapiens) | < 6.30 |
| Cc1ccsc1C(=O)N1CCN(c2ccnc3[nH]ccc23)CC12CC2 | JAK3 (catalytic domain, His-tag) (Homo sapiens) | < 6.30 |
| COc1cnc2[nH]ccc2c1N1CCN(C(=O)c2cnccn2)C2(CC2)C1 | JAK3 (catalytic domain, His-tag) (Homo sapiens) | 6.30 to 7.00 |
| O=C(c1cc2cc(F)ccc2[nH]1)N1CCN(c2ncnc3[nH]ccc23)CC12CC2 | JAK3 (catalytic domain, His-tag) (Homo sapiens) | > 7.00 |

====

// reported EC50 per item
Tgt: JAK1 (aa 850-1154, catalytic domain, GST-tag) (Homo sapiens)
Construct: JAK1 (aa 850-1154) and TYK2 (aa 871-1187) are expressed with an N-terminally fused GST-tag; GST (N); purchased Carna Biosciences, Inc; host or cells: baculovirus expression system
Sequence (P23458 850-1154): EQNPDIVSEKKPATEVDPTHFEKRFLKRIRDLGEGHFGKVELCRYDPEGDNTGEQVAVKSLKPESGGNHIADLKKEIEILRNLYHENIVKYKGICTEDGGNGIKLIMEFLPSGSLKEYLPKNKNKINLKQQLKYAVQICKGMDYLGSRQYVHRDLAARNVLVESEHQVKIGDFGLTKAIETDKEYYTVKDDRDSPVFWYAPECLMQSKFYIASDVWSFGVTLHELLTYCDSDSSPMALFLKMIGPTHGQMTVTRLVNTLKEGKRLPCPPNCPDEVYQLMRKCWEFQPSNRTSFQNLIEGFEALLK
Test name: JAK kinase assay (HTRF, phosphorylation of TK substrate-biotin), JAK1
Format: biochemical
Stated conditions: HTRF assay, ATP at Km (7 μM); read-out: JAK1 kinase inhibitory activity (EC50)
Observable: EC50

| Chemical smiles | Value reported |
| --- | --- |
| O=C(Oc1ccc(Cl)cc1)N1CCN(c2ncnc3[nH]ccc23)CC12CC2 | < 0.1 µM |
| O=C(OC1CCCC1)N1CCN(c2ncnc3[nH]ccc23)CC12CC2 | < 0.1 µM |
| O=C(COc1ccccc1)N1CCN(c2ncnc3[nH]ccc23)CC12CC2 | < 0.1 µM |
| CSCCC(=O)N1CCN(c2ncnc3[nH]ccc23)CC12CC2 | < 0.1 µM |
| CN(C)CCC(=O)N1CCN(c2ncnc3[nH]ccc23)CC12CC2 | > 0.5 µM |

====

Tgt: JAK3 (catalytic domain, His-tag) (Homo sapiens)
Construct: All four purified enzymes contain only the catalytic domain; His (N); purchased Carna Biosciences, Inc; host or cells: baculovirus expression system
Test name: JAK kinase assay (HTRF, phosphorylation of TK substrate-biotin), JAK3
Type: biochemical
Stated conditions: ATP at Km (2 μM); read-out: JAK3 kinase inhibitory activity (EC50 indicator)
// reported EC50 per item

| Compound | EC50 |
| --- | --- |
| O=C1CC(C(=O)N2CCN(c3ncnc4[nH]ccc34)CC23CC3)c2ccccc21 (stereo not shown) | 100 to 500 nM |
| CC(=O)N1CCC(C(=O)N2CCN(c3ncnc4[nH]ccc34)CC23CC3)CC1 | 100 to 500 nM |
| N#Cc1ccc(C(=O)N2CCN(c3ncnc4[nH]ccc34)CC23CC3)s1 | < 100 nM |
| O=C(c1cccc(C(F)(F)F)c1)N1CCN(c2ncnc3[nH]ccc23)CC12CC2 | 100 to 500 nM |
| Cc1ccc(C(=O)N2CCN(c3ncnc4[nH]ccc34)CC23CC3)cc1C(=O)Nc1cccc(C(F)(F)F)c1 | > 500 nM |
| NS(=O)(=O)c1ccc(CC(=O)N2CCN(c3ncnc4[nH]ccc34)CC23CC3)cc1 | < 100 nM |
| O=C1OCCC1NC(=S)N1[C@@H]2CC[C@H]1CN(c1ncnc3[nH]ccc13)C2 (stereo partly shown) | 100 to 500 nM |
| O=C(c1cccc2[nH]ccc12)N1CCN(c2ncnc3[nH]ccc23)CC12CC2 | 100 to 500 nM |
| N#Cc1ccc(CC(=O)N2CCN(c3nc(NC(=O)c4ccno4)nc4[nH]ccc34)CC23CC3)cc1 | > 500 nM |
| COc1cc(C(=O)N2[C@@H]3CC[C@H]2CN(c2ncnc4[nH]ccc24)C3)cs1 | < 100 nM |
| O=C(c1cccc2cccnc12)N1CCN(c2ncnc3[nH]ccc23)CC12CC2 | 100 to 500 nM |
| Cn1c(C(=O)N2C3CCC2CN(c2ncnc4[nH]ccc24)C3)ccc1S(N)(=O)=O | < 100 nM |
| CCOC(=O)N1[C@@H]2CC[C@H]1CN(c1ncnc3[nH]ccc13)C2 | 100 to 500 nM |
| N#Cc1ccc(CS(=O)(=O)N2[C@@H]3CC[C@H]2CN(c2ncnc4[nH]ccc24)C3)cc1 | 100 to 500 nM |
| Cc1cncc(C(=O)N2[C@@H]3CC[C@H]2CN(c2ncnc4[nH]ccc24)C3)n1 | 100 to 500 nM |
| O=C(c1ccc2[nH]cnc2c1)N1CCN(c2ncnc3[nH]ccc23)CC12CC2 | 100 to 500 nM |
